subject.of.test: PRMT5/MEP50 complex (Homo sapiens (Human))
assay.text: PRMT5:MEP50 FlashPlate Assay (histone H4 peptide substrate, plus and minus MTA)
Assay type: biochemical
condition.notes: in the absence of MTA, read-out: IC50
value.kind: IC50 (nM)

Example cases with answers are listed next.
| structure.smiles.string | IC50, nM |
| --- | --- |
| Cc1cccc(-c2c(-c3ccc4c(=O)[nH]nc(CN)c4c3)cnn2C)c1 | 83 |
| NCc1n[nH]c(=O)c2ccc(-c3cncc(Oc4ccccc4F)c3)cc12 | 221 |
| NCc1n[nH]c(=O)c2ccc(-c3cnc4ccccc4c3)cc12 | 47100 |
| NCc1n[nH]c(=O)c2ccc(-c3cnc4ccc(F)cn34)cc12 | 1970 |

a = NCc1n[nH]c(=O)c2ccc(-c3cncc(Sc4ccccc4Cl)c3)cc12
b = NCc1n[nH]c(=O)c2ccc(-c3cncc(OC(F)F)c3)cc12
Between a and b , which one shows the larger IC50 value? // output: label of the selected item b
(b: 11100 nM, a: 36 nM)

A = CCCc1cncc(-c2ccc3c(=O)[nH]nc(CN)c3c2)c1
B = CC(C)c1c[nH]c2ncc(-c3ccc4c(=O)[nH]nc(CN)c4c3)cc12
Between A and B , which one shows the larger IC50 value? // output: label of the selected item A
(A: 2040 nM, B: 80 nM)

---

subject.of.test: PRMT5/MEP50 complex (Homo sapiens (Human), UniProt O14744)
Sequence (O14744 2-637): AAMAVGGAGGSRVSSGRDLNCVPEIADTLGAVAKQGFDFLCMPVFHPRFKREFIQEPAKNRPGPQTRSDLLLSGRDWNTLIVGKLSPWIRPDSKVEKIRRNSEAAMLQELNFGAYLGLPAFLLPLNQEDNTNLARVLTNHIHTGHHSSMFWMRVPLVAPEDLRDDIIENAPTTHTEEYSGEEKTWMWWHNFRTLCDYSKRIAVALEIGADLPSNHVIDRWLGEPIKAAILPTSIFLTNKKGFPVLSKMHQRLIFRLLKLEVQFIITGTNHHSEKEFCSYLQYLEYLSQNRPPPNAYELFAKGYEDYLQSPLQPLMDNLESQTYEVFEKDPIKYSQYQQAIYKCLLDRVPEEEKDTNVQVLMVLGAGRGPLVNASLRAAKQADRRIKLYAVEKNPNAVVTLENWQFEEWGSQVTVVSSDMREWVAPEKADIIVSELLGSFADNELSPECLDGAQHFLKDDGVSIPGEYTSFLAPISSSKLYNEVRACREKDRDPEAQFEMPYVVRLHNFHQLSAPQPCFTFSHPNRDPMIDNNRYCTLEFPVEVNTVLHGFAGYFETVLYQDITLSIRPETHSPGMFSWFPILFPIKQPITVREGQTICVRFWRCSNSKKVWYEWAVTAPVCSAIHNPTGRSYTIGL
Sequence (Q9BQA1 2-342 partner): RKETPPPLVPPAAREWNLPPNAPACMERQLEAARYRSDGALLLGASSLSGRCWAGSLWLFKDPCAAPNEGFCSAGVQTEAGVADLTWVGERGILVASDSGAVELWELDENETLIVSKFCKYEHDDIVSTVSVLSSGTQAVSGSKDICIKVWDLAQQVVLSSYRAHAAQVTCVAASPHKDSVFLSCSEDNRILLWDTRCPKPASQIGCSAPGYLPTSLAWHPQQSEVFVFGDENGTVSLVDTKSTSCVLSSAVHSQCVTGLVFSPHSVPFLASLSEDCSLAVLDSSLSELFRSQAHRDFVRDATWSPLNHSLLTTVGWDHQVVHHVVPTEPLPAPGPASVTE
assay.text: PRMT5:MEP50 HotSpot Assay (full-length histone H2A substrate, plus and minus MTA)
Assay type: biochemical
condition.notes: IC50 + 2 μM MTA, in the presence of 2 μM MTA
Experimental: The PRMT5 inhibitory activity of compounds of the present invention was determined using either a PRMT5:MEP50 FlashPlate Assay (Reaction Biology Corporation) or a PRMT5:MEP50 HotSpot Assay (Reaction Biology Corporation). The assay uses recombinant full-length histone H2A as the PRMT5 substrate. […] The reaction was stopped and transferred to filter paper for detection. The amount of tritiated H2A in each sample was determined using a scintillation counter.
pIC50: −log10 of the molar value.
value.kind: pIC50

Example cases with answers are listed next.
| structure.smiles.string | subject.of.test | value.kind | val |
| --- | --- | --- | --- |
| COc1cc(C#N)c(-c2c(-c3ccc4c(=O)[nH]nc(CN)c4c3)cnn2C)cc1Cl | PRMT5/MEP50 complex (Homo sapiens (Human), UniProt O14744) | pIC50 | 5.80 |
| Cc1c(Cl)ccc(-c2c(-c3ccc4c(=O)[nH]nc(CN)c4c3)cnn2C)c1C#N | PRMT5/MEP50 complex (Homo sapiens (Human), UniProt O14744) | pIC50 | 6.50 |

P = Cc1ccc(-c2c(-c3ccc4c(=O)[nH]nc(CN)c4c3)cnn2C)c(C#N)c1Cl
Q = Cn1ncc(-c2ccc3c(=O)[nH]nc(CN)c3c2)c1-c1ccc(Cl)c(Cl)c1
Between P and Q , which one shows the larger pIC50 value? // output: label of the selected item P

---

subject.of.test: PRMT5/MEP50 complex (Homo sapiens (Human), UniProt O14744)
assay.text: PRMT5:MEP50 FlashPlate Assay (histone H4 peptide substrate, plus and minus MTA)
Type: biochemical
condition.notes: IC50 + 2 μM MTA (nM), in the presence of 2 μM MTA
value.kind: IC50 (nM)

Example cases with answers are listed next.
| structure.smiles.string | IC50 (nM) |
| --- | --- |
| COc1ccc(-c2cncc(-c3ccc4c(=O)[nH]nc(CN)c4c3)c2)c(C#N)c1 | 2.3 |
| Cc1cccc(-c2c(-c3ccc4c(=O)[nH]nc(CN)c4c3)cnn2C)c1 | 2.2 |
| NCc1n[nH]c(=O)c2ccc(-c3cnn4c3CN(c3ccccc3)CC4)cc12 | 14 |
| CC(C)Oc1cncc(-c2ccc3c(=O)[nH]nc(CN)c3c2)c1 | 370 |

I = Cc1nn(C)cc1-c1ccc2c(=O)[nH]nc(CN)c2c1
II = NCc1n[nH]c(=O)c2ccc(-c3cnsc3-c3ccccc3)cc12
III = NCc1n[nH]c(=O)c2cc(NCc3ccccc3)ccc12
Order the 3 compounds from highest to lowest IC50. Give the order by naming the labels one after another as requested. I, III, II

I = NCc1n[nH]c(=O)c2ccc(-c3cnc4[nH]ccc4c3)cc12
II = Cn1cc(-c2ccc3c(CN)n[nH]c(=O)c3c2)cn1
III = NCc1n[nH]c(=O)c2ccc(-c3cncc(OC(F)F)c3)cc12
IV = NCc1n[nH]c(=O)c2ccc(-c3cnn4c3CN(C(=O)C35CC(C3)C5)CC4)cc12
V = NCc1n[nH]c(=O)c2ccc(C3CCCC3)cc12
Hey, can you sort those compounds up there by IC50, smallest first? Give the order by naming the labels one after another as requested. I, IV, III, II, V

P = NCc1n[nH]c(=O)c2ccc(-n3ccnc3)cc12
Q = COCc1cncc(-c2ccc3c(=O)[nH]nc(CN)c3c2)c1
Between P and Q , which one shows the larger IC50 value? // output: label of the selected item P
